Data provenance is PubChem BioAssay (Tox21).

METHOD NOTES: qHTS assay to identify small molecule antagonists of the retinoic acid receptor (RAR) signaling pathway (AID 1159552; note: nearly all actives have a fitted effect of over 50% in size)
MEASUREMENT PARAMETERS: C3RL4 RARE luciferase reporter, retinol-stimulated, 6 h; series mostly up to 92.4 µM
Inconclusive results are not listed. Calls of active or inactive are those of the source. Calls come from the whole dose curve; as a rule, active = well fitted inhibition curve with a large enough effect in the repeat runs; inconclusive = weak or mixed curves, or effect the other way; inactive = no such curve, though single readings can be large or run the other way.

[
  {
    "TEST SMILES": "Clc1cc(Cl)c(Cl)c(Cl)c1",
    "outcome": "inactive"
  },
  {
    "TEST SMILES": "CCOS(C)(=O)=O",
    "outcome": "inactive"
  },
  {
    "TEST SMILES": "O=NN1CCCCCC1",
    "outcome": "inactive"
  }
]

###

METHOD NOTES: qHTS assay to identify small molecule agonists of the estrogen receptor beta (ER-beta) signaling pathway - cell viability counter screen (AID 1259380); note: nearly all actives have a fitted effect of over 30% in size
MEASUREMENT PARAMETERS: ER-beta-bla HEK293T viability, CellTiter-Glo luminescence, 16 h; series mostly up to 92.4 µM
Records with an inconclusive call do not appear. Active and inactive are the calls of the source. Calls come from the whole dose curve; as a rule, active = well fitted cell-killing curve with a large enough effect in the repeat runs; inconclusive = weak or mixed curves, or effect the other way; inactive = flat fitted curve, though single readings scatter.
Give one outcome, nothing more. List: yes for active, no for inactive

[
  {
    "COMPOUND": "O=C(CBr)OCc1ccccc1",
    "QUALITATIVE LABEL": "no"
  },
  {
    "COMPOUND": "O=NN1CCCCCC1",
    "QUALITATIVE LABEL": "no"
  },
  {
    "COMPOUND": "c1ccc(C2CC2)c(OCC2=NCCN2)c1",
    "QUALITATIVE LABEL": "no"
  },
  {
    "COMPOUND": "OCCCBr",
    "QUALITATIVE LABEL": "no"
  },
  {
    "COMPOUND": "CCCCN=C=O",
    "QUALITATIVE LABEL": "no"
  },
  {
    "COMPOUND": "O=S1(=O)OC(c2cc(Br)c(O)c(Br)c2)(c2cc(Br)c(O)c(Br)c2)c2ccccc21",
    "QUALITATIVE LABEL": "yes"
  },
  {
    "COMPOUND": "CCC(C)(NC(=O)c1cc(Cl)c(C)c(Cl)c1)C(=O)CCl (centres undefined)",
    "QUALITATIVE LABEL": "yes"
  },
  {
    "COMPOUND": "CCC(Cl)CCl (centres undefined)",
    "QUALITATIVE LABEL": "no"
  }
]

Then there is this compound:
Q) Record lookup: outcome of this test for CCO[C@H]1O[C@@H]2OC3(C)CC[C@H]4[C@H](C)CC[C@@H]([C@H]1C)[C@@]24OO3 ?
A) no

###

MEASUREMENT TARGET: Nuclear receptor ROR-gamma (Homo sapiens) (UniProt P51449)
METHOD NOTES: qHTS assay to identify small molecule antagonists of the retinoid-related orphan receptor gamma (ROR-gamma) signaling pathway (AID 1159521; note: nearly all actives have a fitted effect of over 50% in size)
MEASUREMENT PARAMETERS: Tet-on RORgamma CHO cells, RORE-luciferase, 16 h; series mostly up to 92.4 µM
Description: U.S. Tox21 Program National Center for Advancing Translational Sciences [NCATS] NIH Chemical Genomics Center [NCGC] U.S. Environmental Protection Agency [EPA] National Institutes of Environmental Health Sciences [NIEHS] National Toxicology Program [NTP] U.S. Food and Drug Administration [FDA] […] Reporter gene activity was induced using Doxycycline Hyclate and measured after 16 hr incubation. […]
Inconclusive results are not listed. Active and inactive are the calls of the source. Calls come from the whole dose curve; as a rule, active = well fitted inhibition curve with a large enough effect in the repeat runs; inconclusive = weak or mixed curves, or effect the other way; inactive = no such curve, though single readings can be large or run the other way.
Write down one outcome, taken from YES (active), NO (inactive)

Some solved entries appear below for comparison.
[
  {
    "COMPOUND": "CC(=O)CCC(C)=O",
    "QUALITATIVE LABEL": "NO"
  },
  {
    "COMPOUND": "O=C(C(Cl)(Cl)Cl)C(Cl)(Cl)Cl",
    "QUALITATIVE LABEL": "NO"
  },
  {
    "COMPOUND": "O=C(O)C(F)(F)C(F)(F)C(F)(F)C(F)(F)C(F)(F)C(F)(F)C(F)(F)C(F)(F)C(F)(F)C(F)(F)F",
    "QUALITATIVE LABEL": "NO"
  },
  {
    "COMPOUND": "CO/C=C(/C(=O)OC)c1ccccc1COc1cccc(C(F)(F)F)n1",
    "QUALITATIVE LABEL": "YES"
  },
  {
    "COMPOUND": "Cc1ccc(-c2c(Cl)nc(C#N)n2S(=O)(=O)N(C)C)cc1",
    "QUALITATIVE LABEL": "YES"
  },
  {
    "COMPOUND": "Oc1ccc(Cl)c(Cl)c1Cl",
    "QUALITATIVE LABEL": "YES"
  },
  {
    "COMPOUND": "COC(N)=O",
    "QUALITATIVE LABEL": "NO"
  },
  {
    "COMPOUND": "O=C(O)c1ccccc1C(=O)Nc1cccc2ccccc12",
    "QUALITATIVE LABEL": "NO"
  }
]

Q) Given Cc1cc(=O)[nH]o1 , state the outcome it received in this test.
A) NO

Q) Call for entry C/C(=C\c1ccccc1)[N+](=O)[O-] :
A) YES

Q) # outcome recorded in this test, key = C=CCN1CC[C@]23c4c5ccc(O)c4O[C@H]2C(=O)CC[C@@]3(O)[C@H]1C5
A) NO
